The origin of these recorded values is patent US20250136578A1.

- System: VCaP cells
- method-description: VCaP growth inhibition assay (CTG)
- Type: cell-based
- run-conditions: Homo sapiens, 216 h, 30 pM R1881, 9 days
- Procedure: VCaP cells (ATCC Cat #CRL-2876) are plated at 1×10^4 cells per well of a white plastic 96-well cluster plate (Thermo Scientific Nunc Cat #165306) in 100 uL phenol red-free DMEM (Gibco Cat #21063-029) media with 5% CSS (Omega Scientific Cat #FB-04). Cluster plates are returned to the incubator (37*C/5% CO2) for 72 hours prior to treatment. […]
property-label: IC50

Here's what some known entries look like.
1) CC(=O)N1CCc2c(c(N3CCCc4cc(C#N)ccc43)nn2C2CCN(CC3(C)CCN(c4ccc(C(=O)N[C@H]5CC[C@H](Oc6ccc(C#N)c(Cl)c6)CC5)nn4)CC3)CC2)C1	100 to 1000 pM
2) CN1C(=O)CCc2cc(N3CCCc4cc(-c5ccc(CCC6CCN(c7ccc(C(=O)N[C@H]8CC[C@H](Oc9ccc(C#N)c(Cl)c9)CC8)nn7)CC6)nc5)ncc43)ccc21	> 100000 pM
3) CC(=O)N1CCc2c(c(N3CCCc4cc(-c5cnn(C)c5)c(C)cc43)nn2C2CCN(C3CCC4(CC3)CN(c3ccc(C(=O)N[C@H]5CC[C@H](Oc6ccc(C#N)c(Cl)c6C)CC5)nn3)C4)CC2)C1	≤ 100 pM

Considering C[C@@H]1CC(=O)Nc2cccc(N3CCCc4cc(-c5cnn(CC6CCN(c7ccc(C(=O)N[C@H]8CC[C@H](Oc9ccc(C#N)c(Cl)c9)CC8)nn7)CC6)c5)c(C(F)F)cc43)c2N1 , its IC50 with VCaP cells was recorded as 100 to 1000 pM

Considering Cn1c(=O)n(C)c2cc(N3CCCc4cc(-c5ccc(CCC6CCN(c7ccc(C(=O)N[C@H]8CC[C@H](Oc9ccc(C#N)c(Cl)c9)CC8)nn7)CC6)nc5)ncc43)ccc21 , its IC50 with VCaP cells was recorded as 100 to 1000 pM

* * *

Below, each entry is listed with its recorded IC50.
- System: VCaP cells
- method-description: VCaP growth inhibition assay (CTG)
- Format: cell-based
- run-conditions: Homo sapiens, 216 h, 30 pM R1881, 9 days

1. COc1cc(O[C@H]2CC[C@H](NC(=O)c3ccc(N4CCC(CN5CCC(n6nc(N7CCCc8cc(-c9cnn(C)c9)c(C(F)F)cc87)c7c6CCN(C(C)=O)C7)CC5)CC4)cc3)CC2)ccc1C#N	≤ 0.1 nM
2. CC(=O)N1CCc2c(c(N3CCCc4cc(-c5cnn(C)c5)c(C(F)F)cc43)nn2C2CCN(CC3C(C)CN(c4ccc(C(=O)N[C@H]5CC[C@H](Oc6ccc(C#N)c(Cl)c6)CC5)nn4)CC3C)CC2)C1 (stereo partly drawn)	≤ 0.1 nM

The record that follows has no IC50 shown yet.
response.value for CC(=O)N1CCc2c(c(N3CCCc4cc(-c5cnn(C)c5)c(C(F)F)cc43)nn2C2CCN(CC3CCN(c4ccc(C(=O)N[C@H]5CC[C@H](Oc6ccc(C#N)c(Cl)c6)CC5)nn4)CC3)CC2)C1 (field: IC50) = ≤ 0.1 nM

* * *

- Tested on: VCaP cells
- method-description: VCaP growth inhibition assay (CTG)
- Format: cell-based
- run-conditions: Homo sapiens, 216 h, 30 pM R1881, 9 days
pIC50: −log10 of the molar value.
Below, each entry is listed with its recorded pIC50.

Here's what some known entries look like.
1. CC(=O)N1CCc2c(c(-c3cccc4cc(-c5ccc(CCOC6CCN(c7ccc(C(=O)N[C@H]8CC[C@H](Oc9ccc(C#N)c(Cl)c9)CC8)nn7)CC6)nc5)ncc34)nn2C2CCOCC2)C1	9.00 to 10.00
2. CC(=O)N1CCc2c(c(-c3cccc4cc(-c5cnn(CCC6CCN(c7ccc(C(=O)N[C@H]8CC[C@H](Oc9ccc(C#N)c(Cl)c9)CC8)nn7)CC6)c5)ncc34)nn2[C@H]2CCOC2)C1	≥ 10.00

response.value for CC(=O)N1CCc2c(c(-c3cccc4cc(C5CC5)ncc34)nn2C2CCN(C(=O)C3CCN(c4ccc(C(=O)N[C@H]5CC[C@H](Oc6ccc(C#N)c(Cl)c6)CC5)nn4)CC3)CC2)C1 (field: pIC50) = 9.00 to 10.00

response.value for CC(=O)N1CCc2c(c(-c3cccc4cc(-c5cnn(C6CCN(C7CCN(c8ccc(C(=O)N[C@H]9CC[C@H](Oc%10ccc(C#N)c(Cl)c%10)CC9)nn8)CC7)CC6)c5)ncc34)nn2C2CCOCC2)C1 (field: pIC50) = 9.00 to 10.00
